Just for reference, patent US8268827B2 is where these values come from.

system: BRCA-1 silenced HeLa cells (HeLa shBRCA1-GFP); assay: Proliferation assay in BRCA-1 silenced HeLa cells; format: cell-based; conditions: Homo sapiens; BRCA1 silenced HeLa cells, 168 hours; read-out: CC50 in the BRCA1 silenced HeLa cells
Where a name gives a salt, the structure may show the parent alone.
value_type: CC50

Item: COC[C@H](C)N1CCN(C(=O)c2cc(Cc3n[nH]c(=O)c(C)c3C)ccc2F)CC1=O | CC50: < 5000 nM

Item: Cc1c(Cc2ccc(F)c(C(=O)N3CC(=O)N(CC(F)(F)F)C(C)C3)c2)n[nH]c(=O)c1C (stereo not drawn) [Example 139, trifluoroacetate] | CC50: 50 to 500 nM

Item: Cc1c(Cc2ccc(F)c(C(=O)N3CCN(c4cncc(C(F)(F)F)c4)C(=O)C3)c2)n[nH]c(=O)c1C [Example 65, trifluoroacetate] | CC50: 50 to 500 nM

Item: Cc1c(Cc2ccc(F)c(C(=O)N3CC(=O)N(C4CCCC4)C(C)C3)c2)n[nH]c(=O)c1C (stereo not drawn) [Example 102, trifluoroacetate] | CC50: < 50 nM

Item: Cc1c(Cc2ccc(F)c(C(=O)N3CCN(c4cccc5ccccc45)C(=O)C3)c2)n[nH]c(=O)c1C [Example 43, trifluoroacetate] | CC50: < 50 nM

Item: Cc1c(Cc2ccc(F)c(C(=O)N3CC(=O)N(c4ccc(C#N)c(F)c4)[C@H](C)C3)c2)n[nH]c(=O)c1C | CC50: < 50 nM
